So I've got a bunch of molecules here, and I need their pIC50 values.
Please treat pIC50 as minus the base-10 logarithm of the molar concentration.

Task: Lab note: need pIC50 with PRMT5 (Homo sapiens, UniProt O14744) for entry `NCCNCc1ccc(-c2ccc3ncn(CC4CCNCC4)c3c2)cc1` , please look it up.
Sequence (O14744 whole entry, species assumed): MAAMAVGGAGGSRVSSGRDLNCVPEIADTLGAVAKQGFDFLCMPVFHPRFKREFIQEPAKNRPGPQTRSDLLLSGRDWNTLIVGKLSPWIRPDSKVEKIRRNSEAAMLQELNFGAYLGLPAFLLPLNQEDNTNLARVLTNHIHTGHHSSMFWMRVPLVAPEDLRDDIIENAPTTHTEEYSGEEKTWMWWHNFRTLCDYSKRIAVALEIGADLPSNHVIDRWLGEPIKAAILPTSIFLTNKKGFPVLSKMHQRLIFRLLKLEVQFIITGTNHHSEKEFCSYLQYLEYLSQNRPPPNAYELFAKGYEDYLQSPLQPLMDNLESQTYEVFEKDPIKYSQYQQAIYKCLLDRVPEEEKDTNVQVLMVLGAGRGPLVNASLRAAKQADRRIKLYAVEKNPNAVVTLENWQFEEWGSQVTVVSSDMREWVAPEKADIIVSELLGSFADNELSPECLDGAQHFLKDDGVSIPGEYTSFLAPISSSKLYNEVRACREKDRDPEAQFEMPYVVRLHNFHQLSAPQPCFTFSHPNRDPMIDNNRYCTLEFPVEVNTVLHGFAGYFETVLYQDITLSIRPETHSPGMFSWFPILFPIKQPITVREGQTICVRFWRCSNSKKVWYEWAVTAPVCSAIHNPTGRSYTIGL
Sequence (Q9BQA1 whole entry partner, species assumed): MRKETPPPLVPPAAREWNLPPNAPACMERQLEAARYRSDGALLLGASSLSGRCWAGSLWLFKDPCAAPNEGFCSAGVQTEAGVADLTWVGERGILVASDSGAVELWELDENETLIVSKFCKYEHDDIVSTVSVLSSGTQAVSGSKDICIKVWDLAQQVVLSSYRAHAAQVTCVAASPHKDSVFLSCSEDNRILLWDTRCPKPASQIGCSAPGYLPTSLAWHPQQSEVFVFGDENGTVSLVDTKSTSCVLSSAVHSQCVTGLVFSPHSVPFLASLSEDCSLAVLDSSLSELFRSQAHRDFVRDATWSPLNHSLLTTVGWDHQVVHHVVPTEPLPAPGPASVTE
Result: 6.38

Task: Lab note: need pIC50 with PRMT5 (Homo sapiens, UniProt O14744) for entry `NCCNCc1ccc(-c2ccc3cnn(Cc4cccc(C(=O)N5CCCC5)c4)c3c2)cc1` , please look it up.
Result: 7.01

Task: Lab note: need pIC50 with PRMT5 (Homo sapiens, UniProt O14744) for entry `NCCNCc1ccc(-c2ccc3ncn(Cc4cccc(C(=O)NCc5ccccc5)c4)c3c2)cc1` , please look it up.
Result: 7.48

Task: Lab note: need pIC50 with PRMT5 (Homo sapiens, UniProt O14744) for entry `Cc1cc(C)c(CNC(=O)c2cc(-c3cccc(CNCCN)c3)cc3[nH]ncc23)c(=O)[nH]1` , please look it up.
Result: 5.38
